- ASSAY_NOTES: in vivo
- TEST_CONDITIONS: SD, rat, thymus, other: intratracheal
PARAMETER_MEASURED: ED50 at 24 h (mg/kg)
Please state the figure in mg/kg; there is no need to write the unit.

I am curious: what ED50 at 24 h value has been reported for CCCC1O[C@@H]2C[C@H]3[C@@H]4CCC5=CC(=O)C=C[C@]5(C)[C@H]4[C@@H](O)C[C@]3(C)[C@]2(C(=O)CO)O1 (stereo partly shown) [Budesonide] ?
0.68

====

- System: liver glycogen deposition
- Format: in vivo, Male Sprague Dawley rats
- TEST_CONDITIONS: 3 mg/kg intratracheally, 2 doses 24 hrs apart, adrenalectomized rats
PARAMETER_MEASURED: Glycogen content (mg/100 g liver)
Please state the figure in mg/100 g liver; there is no need to write the unit.

I am curious: what Glycogen content value has been reported for CCC(=O)O[C@]1(C(=O)SOCF)[C@H](C)CC2C3C[C@H](F)C4=CC(=O)C=C[C@]4(C)[C@@]3(F)[C@@H](O)C[C@@]21C (stereo partly shown) ?
−11.34

I am curious: what Glycogen content value has been reported for CCCC1O[C@@H]2C[C@H]3[C@@H]4CCC5=CC(=O)C=C[C@]5(C)[C@H]4[C@@H](O)C[C@]3(C)[C@]2(C(=O)CO)O1 (stereo partly shown) [Budesonide] ?
552.77

I am curious: what Glycogen content value has been reported for C[C@@H]1C[C@H]2[C@@H]3CCC4=CC(=O)C=C[C@]4(C)[C@@]3(Cl)[C@@H](O)C[C@]2(C)[C@@]1(OC(=O)c1ccco1)C(=O)CCl [Mometasone furoate] ?
1117.32

I am curious: what Glycogen content value has been reported for CCC(=O)O[C@]1(C(=O)SCF)[C@H](C)C[C@H]2[C@@H]3C[C@H](F)C4=CC(=O)C=C[C@]4(C)[C@@]3(F)[C@@H](O)C[C@@]21C [Fluticasone propionate, reference compound] ?
1514.65

Entry source: patent US8785425B2
